Reference source: paper PMC3205184

- TARGET_SYSTEM: α7 nicotinic acetylcholine receptor (α7 nAChR) (Rattus norvegicus)
- Sequence (Q05941 23-502): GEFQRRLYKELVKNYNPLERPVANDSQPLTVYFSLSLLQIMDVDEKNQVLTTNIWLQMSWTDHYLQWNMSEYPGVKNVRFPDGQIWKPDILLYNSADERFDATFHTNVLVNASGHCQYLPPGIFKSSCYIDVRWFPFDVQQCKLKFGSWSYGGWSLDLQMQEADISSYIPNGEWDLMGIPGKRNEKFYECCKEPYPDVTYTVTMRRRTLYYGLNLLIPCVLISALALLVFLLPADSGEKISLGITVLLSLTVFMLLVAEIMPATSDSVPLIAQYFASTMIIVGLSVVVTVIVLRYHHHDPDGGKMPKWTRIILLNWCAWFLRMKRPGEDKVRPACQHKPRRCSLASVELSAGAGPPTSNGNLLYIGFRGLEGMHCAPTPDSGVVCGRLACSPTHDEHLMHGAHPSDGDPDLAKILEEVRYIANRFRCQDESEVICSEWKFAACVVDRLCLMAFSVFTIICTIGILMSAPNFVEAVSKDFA
- ASSAY: two-electrode voltage clamp in Xenopus oocytes; potentiation of EC20 acetylcholine responses, with site-directed mutants
ATTRIBUTE_MEASURED: pEC50
Scale for pEC50: -log10 of concentration given in mol/L; no unit attached.

Entry O=C(Nc1cc(Cl)ccc1O)Nc1cc(C(F)(F)F)ccc1Cl has what pEC50?
5.17
